Would you kindly list selectivity ratio for each of these compounds?
Experiment: Selectivity ratio of IC50 for HEK293 cells to IC50 for human HT-29 cells
Type: ADME, cell-based
Details: HEK293 cells versus HT-29 cells, read-out: Ratio IC50

Answered examples (2):
Nc1ccccc1/C=C/c1ccc(O)cc1 = < 0.1
COc1ccccc1/C=C/c1ccc(O)cc1 = 1.7

State recorded selectivity ratio for all listed compounds.
1. COc1cccc(/C=C/c2cccc(O)c2)c1
2. Oc1ccc(/C=C/c2cccc(O)c2)cc1 [(E)-3,4'-STILBENDIOL]
3. Oc1cccc(/C=C/c2ccccc2O)c1
4. CCCCCCCCCCCC(=O)Nc1ccc(/C=C/c2ccccc2)cc1
5. COc1ccccc1/C=C/c1ccccc1O
6. COc1ccccc1/C=C/c1cccc(O)c1
7. Nc1ccccc1/C=C/c1cccc(O)c1

[1.6, 0.2, 0.7, "< 0.1", 0.7, 1.4, 0.7]

Below are 3 compounds. Give each one its selectivity ratio.
1. COc1ccc(/C=C/c2cccc(N)c2)cc1
2. Nc1ccccc1/C=C/c1ccccc1O
3. Nc1ccc(/C=C/c2ccccc2O)cc1

[0.7, 0.7, 0.6]

For every item in the list below, what is its measured selectivity ratio?
1. Oc1ccccc1/C=C/c1ccccc1O
2. COc1ccccc1/C=C/c1ccc(N)cc1

[0.9, "< 0.1"]
